Assay: Binding affinity to drug-resistant HIV-1 protease I13V/G16E/V32I/L33F/K45I/M46I/V82F/I84V/A71V/L76V/I54L mutant expressed in Escherichia coli TAP-106 cells assessed as inhibition constant using a EDANS/DABCYL FRET-peptide substrate preincubated for 1 hr followed by substrate addition measured after 1 hr by fluorogenic assay
Set-up: species or system Human immunodeficiency virus 1
EXPERIMENTAL ENDPOINT: Ki (nM)
Give the value in nM but do not write nM after it.

- SMILES REPRESENTATION: "CCOP(=O)(COc1ccc(C[C@H](NC(=O)O[C@H]2CO[C@H]3OCC[C@H]32)[C@H](O)CN(CC(C)C)S(=O)(=O)c2ccc3ncsc3c2)cc1)OCC"
  Ki [nM]: 15
- SMILES REPRESENTATION: "CCOP(=O)(COc1ccc(C[C@H](NC(=O)O[C@H]2CO[C@H]3OCC[C@H]32)[C@H](O)CN(CC(CC)CC)S(=O)(=O)c2ccc3ncsc3c2)cc1)OCC"
  Ki [nM]: 3.2
- SMILES REPRESENTATION: "CCOP(=O)(COc1ccc(C[C@H](NC(=O)O[C@H]2CO[C@H]3OCC[C@H]32)[C@H](O)CN(CC(CC)CC)S(=O)(=O)c2ccc(N)cc2)cc1)OCC"
  Ki [nM]: 106

Item under review: CCOP(=O)(COc1ccc(C[C@H](NC(=O)O[C@H]2CO[C@H]3OCC[C@H]32)[C@H](O)CN(C[C@@H](C)CC)S(=O)(=O)c2ccc(CO)cc2)cc1)OCC . Reported Ki?
103

Would you kindly share the measured Ki for CCOP(=O)(COc1ccc(C[C@H](NC(=O)O[C@H]2CO[C@H]3OCC[C@H]32)[C@H](O)CN(CC(C)C)S(=O)(=O)c2ccc3c(c2)OCO3)cc1)OCC ?
63.5

Request the reported Ki associated with CCOP(=O)(COc1ccc(C[C@H](NC(=O)O[C@H]2CO[C@H]3OCC[C@H]32)[C@H](O)CN(C[C@@H](C)CC)S(=O)(=O)c2ccc(OC)cc2)cc1)OCC
10.5

For the compound CCOP(=O)(COc1ccc(C[C@H](NC(=O)O[C@H]2CO[C@H]3OCC[C@H]32)[C@H](O)CN(CC(CC)CC)S(=O)(=O)c2ccc(OC)cc2)cc1)OCC , what Ki is on record?
2.2

Fill in the blank: the reported Ki of CCOP(=O)(COc1ccc(C[C@H](NC(=O)O[C@H]2CO[C@H]3OCC[C@H]32)[C@H](O)CN(CC(C)C)S(=O)(=O)c2ccc(OC)cc2)cc1)OCC is ____.
3.6

Quick one: Ki of CCOP(=O)(COc1ccc(C[C@H](NC(=O)O[C@H]2CO[C@H]3OCC[C@H]32)[C@H](O)CN(C[C@@H](C)CC)S(=O)(=O)c2ccc(N)cc2)cc1)OCC ?
259
